target: Cholecystokinin receptor type A (Cavia porcellus); experiment: Inhibition of specific binding of [125I]BH-CCK-8 in guinea pig pancreas.
Sequence (Q63931 whole entry): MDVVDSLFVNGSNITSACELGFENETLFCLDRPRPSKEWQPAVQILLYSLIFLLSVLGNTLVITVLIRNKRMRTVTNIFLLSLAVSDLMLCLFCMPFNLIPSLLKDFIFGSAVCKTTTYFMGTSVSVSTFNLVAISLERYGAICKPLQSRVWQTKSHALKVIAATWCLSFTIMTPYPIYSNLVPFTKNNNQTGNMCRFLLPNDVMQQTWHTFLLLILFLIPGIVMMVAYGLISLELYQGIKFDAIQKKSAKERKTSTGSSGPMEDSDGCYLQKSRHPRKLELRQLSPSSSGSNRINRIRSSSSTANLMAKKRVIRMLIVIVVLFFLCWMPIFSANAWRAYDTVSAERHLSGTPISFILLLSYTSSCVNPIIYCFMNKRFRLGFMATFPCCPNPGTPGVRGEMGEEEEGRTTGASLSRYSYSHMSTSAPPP
Where a SMILES comes first, the peptide text is derived from it. The star is where a group is joined. X22 = O=C(CCc1cccc(OS(=O)(=O)O)c1)*; X25 = COc1ccc(/C=C\C(=O)*)cc1; X4 = O=C(/C=C\c1ccc(F)cc1)*; Boc = CC(C)(C)OC(=O)*
What IC50 was measured for each of the following?
Answer format: number, then unit.

Recall the reported IC50 of COc1ccc(/C=C\C(=O)NCCCC[C@H](NC(=O)[C@H](Cc2c[nH]c3ccccc23)NC(=O)OC(C)(C)C)C(=O)N[C@@H](CC(=O)O)C(=O)N[C@@H](Cc2ccccc2)C(N)=O)cc1 (Boc-WK(X25)DF-NH2) when tested on Cholecystokinin receptor type A (Cavia porcellus).
30 nM

Recall the reported IC50 of CC(C)(C)OC(=O)N[C@@H](Cc1c[nH]c2ccccc12)C(=O)N[C@@H](CCCCNC(=O)CCc1cccc(OS(=O)(=O)O)c1)C(=O)N[C@@H](CC(=O)O)C(=O)N[C@@H](Cc1ccccc1)C(N)=O (Boc-WK(X22)DF-NH2) when tested on Cholecystokinin receptor type A (Cavia porcellus).
180 nM

Recall the reported IC50 of CC(C)(C)OC(=O)N[C@@H](Cc1c[nH]c2ccccc12)C(=O)N[C@@H](CCCCNC(=O)/C=C\c1ccc(F)cc1)C(=O)N[C@@H](CC(=O)O)C(=O)N[C@@H](Cc1ccccc1)C(N)=O (Boc-WK(X4)DF-NH2) when tested on Cholecystokinin receptor type A (Cavia porcellus).
65 nM

====

Where a SMILES comes first, the peptide text is derived from it. [ ]: non-standard residue; d: D form. The star is where a group is joined. Acryloyl(3-(3-pyridyl),E) = O=C(/C=C/c1cccnc1)*; Dihydrocaffeoyl = O=C(CCc1ccc(O)c(O)c1)*; X23 = O=C(/C=C/c1ccc(OS(=O)(=O)O)cc1)*; X6 = O=C(/C=C\c1ccc([N+](=O)[O-])cc1)*; Butanoyl(4-Ph) = O=C(CCCc1ccccc1)*; 1Naphthoyl = O=C(c1cccc2ccccc12)*; Hydrocinnamoyl = O=C(CCc1ccccc1)*; NMeF = CN[C@@H](Cc1ccccc1)C(=O)O; X30 = O=C(CCc1ccc(C(F)(F)F)cc1)*; X2 = O=C(c1cc2cc(Cl)ccc2[nH]1)*; X31 = COc1ccc(/C=C\C(=O)*)cc1OC; X7 = CN(C)c1ccc(/C=C\C(=O)*)cc1; X1 = O=C(/C=C\c1ccc(O)c(O)c1)*; X12 = O=C(c1cnc2cccc(O)c2c1)*; X32 = Cc1ccc(/C=C\C(=O)*)cc1; X16 = O=C(/C=C\c1ccccc1O)*; X5 = O=C(CCc1cccc(O)c1)*; Boc = CC(C)(C)OC(=O)*
What pIC50 was measured for each of the following?
# pIC50 = -log10(concentration in molar units)

Recall the reported pIC50 of Cc1ccc(/C=C\C(=O)NCCCC[C@H](NC(=O)[C@H](Cc2c[nH]c3ccccc23)NC(=O)OC(C)(C)C)C(=O)N[C@@H](CC(=O)O)C(=O)N[C@@H](Cc2ccccc2)C(N)=O)cc1 (Boc-WK(X32)DF-NH2) when tested on Cholecystokinin receptor type A (Cavia porcellus).
7.15

Recall the reported pIC50 of CC(C)(C)OC(=O)N[C@@H](Cc1c[nH]c2ccccc12)C(=O)N[C@@H](CCCCNC(=O)CCc1cccc(O)c1)C(=O)N[C@@H](CC(=O)O)C(=O)N[C@@H](Cc1ccccc1)C(N)=O (Boc-WK(X5)DF-NH2) when tested on Cholecystokinin receptor type A (Cavia porcellus).
6.40

Recall the reported pIC50 of CC(C)(C)OC(=O)N[C@@H](Cc1c[nH]c2ccccc12)C(=O)N[C@@H](CCCCNC(=O)/C=C\c1ccc([N+](=O)[O-])cc1)C(=O)N[C@@H](CC(=O)O)C(=O)N[C@@H](Cc1ccccc1)C(N)=O (Boc-WK(X6)DF-NH2) when tested on Cholecystokinin receptor type A (Cavia porcellus).
7.24

Recall the reported pIC50 of CC(C)(C)OC(=O)N[C@@H](Cc1c[nH]c2ccccc12)C(=O)N[C@@H](CCCCNC(=O)c1cnc2cccc(O)c2c1)C(=O)N[C@@H](CC(=O)O)C(=O)N[C@@H](Cc1ccccc1)C(N)=O (Boc-WK(X12)DF-NH2) when tested on Cholecystokinin receptor type A (Cavia porcellus).
8.11

Recall the reported pIC50 of CN(C)c1ccc(/C=C\C(=O)NCCCC[C@H](NC(=O)[C@H](Cc2c[nH]c3ccccc23)NC(=O)OC(C)(C)C)C(=O)N[C@@H](CC(=O)O)C(=O)N[C@@H](Cc2ccccc2)C(N)=O)cc1 (Boc-WK(X7)DF-NH2) when tested on Cholecystokinin receptor type A (Cavia porcellus).
6.92

Recall the reported pIC50 of CC(C)(C)OC(=O)N[C@@H](Cc1c[nH]c2ccccc12)C(=O)N[C@@H](CCCCNC(=O)/C=C/c1cccnc1)C(=O)N[C@@H](CC(=O)O)C(=O)N[C@@H](Cc1ccccc1)C(N)=O (Boc-WK(Acryloyl(3-(3-pyridyl),E))DF-NH2) when tested on Cholecystokinin receptor type A (Cavia porcellus).
7.68

Recall the reported pIC50 of CC(C)(C)OC(=O)N[C@@H](Cc1c[nH]c2ccccc12)C(=O)N[C@@H](CCCCNC(=O)c1cccc2ccccc12)C(=O)N[C@@H](CC(=O)O)C(=O)N[C@@H](Cc1ccccc1)C(N)=O (Boc-WK(1Naphthoyl)DF-NH2) when tested on Cholecystokinin receptor type A (Cavia porcellus).
7.24

Recall the reported pIC50 of CC(C)(C)OC(=O)N[C@@H](Cc1c[nH]c2ccccc12)C(=O)N[C@@H](CCCCNC(=O)CCc1ccc(O)c(O)c1)C(=O)N[C@@H](CC(=O)O)C(=O)N[C@@H](Cc1ccccc1)C(N)=O (Boc-WK(Dihydrocaffeoyl)DF-NH2) when tested on Cholecystokinin receptor type A (Cavia porcellus).
6.80

Recall the reported pIC50 of CC(C)(C)OC(=O)N[C@@H](Cc1c[nH]c2ccccc12)C(=O)N[C@@H](CCCCNC(=O)CCc1ccc(C(F)(F)F)cc1)C(=O)N[C@@H](CC(=O)O)C(=O)N[C@@H](Cc1ccccc1)C(N)=O (Boc-WK(X30)DF-NH2) when tested on Cholecystokinin receptor type A (Cavia porcellus).
6.41

Recall the reported pIC50 of CC(C)(C)OC(=O)N[C@@H](Cc1c[nH]c2ccccc12)C(=O)N[C@@H](CCCCNC(=O)/C=C\c1ccccc1O)C(=O)N[C@@H](CC(=O)O)C(=O)N[C@@H](Cc1ccccc1)C(N)=O (Boc-WK(X16)DF-NH2) when tested on Cholecystokinin receptor type A (Cavia porcellus).
6.96

Recall the reported pIC50 of CN(C(=O)[C@H](CC(=O)O)NC(=O)[C@H](CCCCNC(=O)/C=C/c1cccnc1)NC(=O)[C@H](Cc1c[nH]c2ccccc12)NC(=O)OC(C)(C)C)[C@@H](Cc1ccccc1)C(N)=O (Boc-WK(Acryloyl(3-(3-pyridyl),E))D[NMeF]-NH2) when tested on Cholecystokinin receptor type A (Cavia porcellus).
7.55

Recall the reported pIC50 of CN(C(=O)[C@H](CC(=O)O)NC(=O)[C@H](CCCCNC(=O)/C=C/c1ccc(OS(=O)(=O)O)cc1)NC(=O)[C@H](Cc1c[nH]c2ccccc12)NC(=O)OC(C)(C)C)[C@@H](Cc1ccccc1)C(N)=O (Boc-WK(X23)D[NMeF]-NH2) when tested on Cholecystokinin receptor type A (Cavia porcellus).
7.66

Recall the reported pIC50 of CC(C)(C)OC(=O)N[C@@H](Cc1c[nH]c2ccccc12)C(=O)N[C@@H](CCCCNC(=O)c1cc2cc(Cl)ccc2[nH]1)C(=O)N[C@@H](CC(=O)O)C(=O)N[C@@H](Cc1ccccc1)C(N)=O (Boc-WK(X2)DF-NH2) when tested on Cholecystokinin receptor type A (Cavia porcellus).
6.96

Recall the reported pIC50 of CC(C)(C)OC(=O)N[C@@H](Cc1c[nH]c2ccccc12)C(=O)N[C@@H](CCCCNC(=O)CCCc1ccccc1)C(=O)N[C@@H](CC(=O)O)C(=O)N[C@@H](Cc1ccccc1)C(N)=O (Boc-WK(Butanoyl(4-Ph))DF-NH2) when tested on Cholecystokinin receptor type A (Cavia porcellus).
6.04

Recall the reported pIC50 of CC(C)(C)OC(=O)N[C@@H](Cc1c[nH]c2ccccc12)C(=O)N[C@@H](CCCCNC(=O)CCc1ccccc1)C(=O)N[C@@H](CC(=O)O)C(=O)N[C@@H](Cc1ccccc1)C(N)=O (Boc-WK(Hydrocinnamoyl)DF-NH2) when tested on Cholecystokinin receptor type A (Cavia porcellus).
6.51

Recall the reported pIC50 of COc1ccc(/C=C\C(=O)NCCCC[C@H](NC(=O)[C@H](Cc2c[nH]c3ccccc23)NC(=O)OC(C)(C)C)C(=O)N[C@@H](CC(=O)O)C(=O)N[C@@H](Cc2ccccc2)C(N)=O)cc1OC (Boc-WK(X31)DF-NH2) when tested on Cholecystokinin receptor type A (Cavia porcellus).
7.40

Recall the reported pIC50 of CC(C)(C)OC(=O)N[C@@H](Cc1c[nH]c2ccccc12)C(=O)N[C@@H](CCCCNC(=O)/C=C\c1ccc(O)c(O)c1)C(=O)N[C@@H](CC(=O)O)C(=O)N[C@@H](Cc1ccccc1)C(N)=O (Boc-WK(X1)DF-NH2) when tested on Cholecystokinin receptor type A (Cavia porcellus).
7.48

Data origin, for the record: ChEMBL document CHEMBL1126058
